assay: Half life in mouse at 10 mg/kg, po; assay type: ADME, organism-based; details: in vivo
measured.property: half-life (min)
Answers are plain numbers, in min.

For orientation, consider the following solved cases.
# compound, quantitative.readout
data = [
    ("CCN(c1cc(-c2ccc3c(c2)N(C)CC32CCOCC2)cc(C(=O)NCc2c(C)cc(C)[nH]c2=O)c1C)C1CCOCC1", 10.8),
    ("CCN1C(=O)C2(CCOCC2)c2ccc(-c3cc(C(=O)NCc4c(C)cc(C)[nH]c4=O)c(C)c(N(CC)C4CCOCC4)c3)cc21", 27.6),
    ("CCN(c1cc(-c2ccc3c(c2)NC(=O)C32CCOCC2)cc(C(=O)NCc2c(C)cc(C)[nH]c2=O)c1C)C1CCOCC1", 37.2),
]

List half-life for every entry below, keeping the order given.
1. CCN(c1cc(-c2ccc3c(c2)CCC3N2CCOCC2)cc(C(=O)NCc2c(C)cc(C)[nH]c2=O)c1C)C1CCOCC1 (stereo not given)
2. CCN(c1cc(-c2ccc(CN3CCOCC3)cc2)cc(C(=O)NCc2c(C)cc(C)[nH]c2=O)c1C)C1CCOCC1

output:
1. 40.2
2. 52.8

----------
assay: Oral bioavailability in mouse at 10 mg/kg; type: ADME, organism-based; settings: in vivo
Outcome label depends on bioavailability relative to 30%: at/above gives 1, below gives -1.

Example entries begin here.
# compound, assigned.category
records = [
    ("CCN(c1cc(-c2ccc3c(c2)NC(=O)C32CCOCC2)cc(C(=O)NCc2c(C)cc(C)[nH]c2=O)c1C)C1CCOCC1", -1),
    ("CCN(c1cc(-c2ccc3c(c2)CCC3N2CCOCC2)cc(C(=O)NCc2c(C)cc(C)[nH]c2=O)c1C)C1CCOCC1 (stereo unspecified)", 1),
    ("CCN(c1cc(-c2ccc3c(c2)NC(=O)C32CCN(C)CC2)cc(C(=O)NCc2c(C)cc(C)[nH]c2=O)c1C)C1CCOCC1", -1),
    ("CCN1C(=O)C2(CCOCC2)c2ccc(-c3cc(C(=O)NCc4c(C)cc(C)[nH]c4=O)c(C)c(N(CC)C4CCOCC4)c3)cc21", 1),
    ("CCN(c1cc(-c2ccc3c(c2)N(C)CC32CCOCC2)cc(C(=O)NCc2c(C)cc(C)[nH]c2=O)c1C)C1CCOCC1", -1),
]

input: Quick check, bioavailability >= 30%? CCN(c1cc(-c2ccc(CN3CCOCC3)cc2)cc(C(=O)NCc2c(C)cc(C)[nH]c2=O)c1C)C1CCOCC1
output: 1

----------
I'd be grateful if you could share measured Vd for these entries.
test: Volume of distribution at steady state in mouse at 2 mg/kg, iv; format: ADME, organism-based; conditions: in vivo, read-out: Vdss
One number for each entry, in L/kg.

For orientation, consider the following solved cases.
# compound, measured.property, uom, quantitative.readout
data = [
    ("CCN(c1cc(-c2ccc(CN3CCOCC3)cc2)cc(C(=O)NCc2c(C)cc(C)[nH]c2=O)c1C)C1CCOCC1", "Vd", "L/kg", 0.623),
    ("CCN(c1cc(-c2ccc3c(c2)CCC3N2CCOCC2)cc(C(=O)NCc2c(C)cc(C)[nH]c2=O)c1C)C1CCOCC1 (stereo unspecified)", "Vd", "L/kg", 0.65),
    ("CCN1C(=O)C2(CCOCC2)c2ccc(-c3cc(C(=O)NCc4c(C)cc(C)[nH]c4=O)c(C)c(N(CC)C4CCOCC4)c3)cc21", "Vd", "L/kg", 0.803),
    ("CCN(c1cc(-c2ccc3c(c2)NC(=O)C32CCOCC2)cc(C(=O)NCc2c(C)cc(C)[nH]c2=O)c1C)C1CCOCC1", "Vd", "L/kg", 2.61),
    ("CCN(c1cc(-c2ccc3c(c2)NC(=O)C32CCN(C)CC2)cc(C(=O)NCc2c(C)cc(C)[nH]c2=O)c1C)C1CCOCC1", "Vd", "L/kg", 0.688),
]

Continue with the next compound.
input: Value lookup for Vd; key = CCN(c1cc(-c2ccc3c(c2)N(C)CC32CCOCC2)cc(C(=O)NCc2c(C)cc(C)[nH]c2=O)c1C)C1CCOCC1
output: 0.565

Data provenance is ChEMBL document CHEMBL5584208.
